Entry source: PubChem BioAssay AID2177

target: Acyl-protein thioesterase 2 (Homo sapiens) (UniProt O95372); assay: LYPLA2 inhibitors, primary screen, counter-screen for PME1 inhibitor project, biochemical, fluorescence polarization, FP-Rh probe ABPP (AID 2177); conditions: recombinant LYPLA2, FP-Rh probe fluorescence polarization; at 5.9 µM;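 also: 0% = LYPLA2 with DMSO and 100% = wells lacking LYPLA2 enzyme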
Sequence (O95372 whole entry, looked up): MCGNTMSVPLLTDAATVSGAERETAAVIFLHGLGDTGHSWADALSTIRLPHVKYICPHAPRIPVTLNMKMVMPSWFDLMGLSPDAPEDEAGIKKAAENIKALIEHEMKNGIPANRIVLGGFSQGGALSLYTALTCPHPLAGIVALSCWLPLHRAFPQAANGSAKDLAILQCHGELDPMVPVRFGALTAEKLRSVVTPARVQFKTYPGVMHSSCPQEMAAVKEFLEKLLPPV
Out of some 320,000 compounds screened, about 1,200 (0.38%) were called active.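 The calls were made as follows: active = inhibition above the screen-wide mean plus 3 SD, limit set per campaign (cut at about 26% in these data); inactive = the rest.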 The entries come from a sample that favours actives as a whole.
Outcomes you can answer with include only these: active, inactive

O=C(COc1ccc(S(=O)(=O)Nc2cccc(C(F)(F)F)c2)cc1)N1CCOCC1 | inactive
OC(COc1ccc2c(c1)CCC2)CN1CCN(c2cccc(Cl)c2)CC1 (stereo not given) | inactive
O=C(CCCN1C(=O)C2C3C=CC(C3)C2C1=O)N1CCN(c2ccccc2)CC1 (stereo not given) | inactive
O=C(CCCN1C(=O)CSc2ncccc21)N1CCN(c2cccc(C(F)(F)F)c2)CC1 | active

Now look at this one.
**Query** Please share the test call associated with COc1ccc(N2CCN(C(=O)COc3ccc4c(C)cc(=O)oc4c3)CC2)cc1 .
**Result** inactive

---

target: Acyl-protein thioesterase 2 (Homo sapiens) (UniProt O95372); experiment: LYPLA2 inhibitors, primary screen, counter-screen for PME1 inhibitor project, biochemical, fluorescence polarization, FP-Rh probe ABPP (AID 2177); conditions: recombinant LYPLA2, FP-Rh probe fluorescence polarization; at 5.9 µM; hits give high values;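 also: 0% = LYPLA2 with DMSO and 100% = wells lacking LYPLA2 enzyme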
Out of some 320,000 compounds screened, about 1,200 (0.38%) were called active. Only a selection was taken, and actives are over-represented in it overall.
measurement type: inhibition (%)
All answers are understood in %, so give the number only.

As a guide, the following entries are already answered.
CCOC(=O)c1c(-c2ccccc2)oc2ccc(OCC(=O)NN)cc12 | -13
COCCOC(=O)C1=C(C)NC(=O)NC1c1ccc(Cl)cc1 (stereo not given) | 3.24
Cc1ccc(/C=N/NC(=O)C(NC(=O)c2ccccc2)c2n[nH]c(=O)c3ccccc23)cc1 (stereo not given) | 40.8
COCCn1c(SCC(=O)c2[nH]c(C)c(C(C)=O)c2C)nc2ccccc2c1=O | -1.43

Pending compound:
**Query** Name the reported inhibition value associated with the compound Cc1ccc(/C=N/NC(=O)COc2ccccc2-c2ccccc2)cc1
**Result** 2.18

---

molecular target: Acyl-protein thioesterase 2 (Homo sapiens); test: LYPLA2 inhibitors, primary screen, counter-screen for PME1 inhibitor project, biochemical, fluorescence polarization, FP-Rh probe ABPP (AID 2177); settings: recombinant LYPLA2, FP-Rh probe fluorescence polarization; at 5.9 µM; hits give high values;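 also: 0% = LYPLA2 with DMSO and 100% = wells lacking LYPLA2 enzyme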
Screen size: about 320,000 compounds; about 1,200 (0.38%) were called active. The sample as a whole holds a higher share of actives than the screen did.
measurement type: inhibition

As a guide, the following entries are already answered.
COc1cccc(C(=O)Nc2nnc(S(=O)(=O)N3CCOCC3)s2)c1 | -0.08% (inactive)
CC(C)C1Nc2c(C(=O)O)cccc2C(Nc2ccccc2C(=O)O)C1(C)C (stereo not drawn) | 1.52% (inactive)
O=C1C2CCCN2C(=O)N1CCCCN1CCN(c2cccc(C(F)(F)F)c2)CC1 (stereo not drawn) | 64.2% (active)

**Query** Name the reported inhibition value associated with the compound O=C(c1ccc2c(c1)N(Cc1ccc(F)cc1)C(=O)c1ccccc1S2(=O)=O)N1CCN(c2ccccn2)CC1
**Result** 1.84% (inactive)

**Query** Further, for COc1ccc(-c2cc(C(=O)N3CCN(c4ccc(F)cc4)CC3)no2)cc1 ?
**Result** 8.33% (inactive)

**Query** Further, for CCN(C(=O)C1CCCN(c2nc(-c3ccc(OC)cc3)no2)C1)c1ccc(OC)cc1 (stereo not drawn) ?
**Result** 1.52% (inactive)

**Query** Further, for COc1ccc(OC)c(NC(=O)c2cccc(S(=O)(=O)N3CCN(C(C)=O)CC3)c2)c1 ?
**Result** -0.81% (inactive)

**Query** Further, for O=c1[nH]n(-c2ccc([N+](=O)[O-])cc2)c(=O)c2ccccc12 ?
**Result** 33.6% (active)
